The measurements presented in this section are drawn from PubChem BioAssay (NCI).

- Tested on: HS 578T breast
- Protocol Details: NCI tumour cell line growth inhibition, 48 h; in the data active means GI50 below about 0.43 µM; inactive means the rest
Would you mind answering with one of these outcomes? active, inactive

How did this test come out for "CCc1cc(Cc2cc(CC)cc(C(C)(C)C)c2O)c(O)c(C(C)(C)C)c1" ? inactive

Assay outcome for "Clc1ccc2c(NCCCNCc3ccc4c(c3)OCO4)ccnc2c1" : what was it? inactive

Which outcome did this test record for the compound "Cc1cc(=O)[nH]c2c1C(=O)C(=O)C=C2" ? inactive

Test call for this compound, please: "COc1ccc(S(=O)(=O)Nc2c(/C=C\c3cc(OC)c(OC)c(OC)c3)ccc(OC)c2O)cc1OC" active

// outcome(item) with item = "N=C(N)c1ccc(-c2ccc(-c3ccccc3)o2)o1" inactive

Record lookup: outcome of this test for "COc1cc(-c2nc3cc(Cl)c(Cl)cc3[nH]2)ccc1OCC(=O)N=Nc1c(O)[nH]c2ccccc12" ? inactive

Can you look up the reported call for "C=C(C=O)[C@@H]1CC=C(C=O)CC1" for me? inactive

// outcome(item) with item = "O=C1COCCN1c1ccc(NCc2cn(Cc3ccc(F)cc3)c3ccccc23)cc1" inactive

Hey, what did the test say about "COc1ccc2c(C(=O)NCCCCCC(=O)O)cc3cc4c(cc3c2c1)OCO4" ? inactive

Recorded test call requested for "CCCCCCCCCCCC(=O)[O][Sn]([CH2]CCC)([CH2]CCC)[CH2]CCC" active

Record request — test call for "O=c1c(Br)ccc(Br)cc1Br" inactive
